particulars: in ethanol, 313.15 K
endpoint: solubility (mole fraction)
One number for each entry.

The compound listed as `c1ccc(-n2c3ccccc3c3ccccc32)cc1` shows solubility (mole fraction) equal to 0.007

* * *

particulars: in chloroform, 303.15 K
endpoint: solubility (mole fraction)
Answers are plain numbers.

The compound listed as `c1ccc(-n2c3ccccc3c3ccccc32)cc1` shows solubility (mole fraction) equal to 0.555

* * *

particulars: in 1,4-dioxane, 298.15 K
endpoint: solubility (mole fraction)

The molecule listed as `c1ccc(-n2c3ccccc3c3ccccc32)cc1` shows solubility (mole fraction) equal to 0.292

* * *

particulars: in dichloromethane, 298.15 K
endpoint: solubility (mole fraction)
Numbers only.

The molecule listed as `c1ccc(-n2c3ccccc3c3ccccc32)cc1` shows solubility (mole fraction) equal to 0.453

* * *

particulars: in n-propanol, 288.15 K
endpoint: solubility (mole fraction)
One number for each entry.

The compound listed as `c1ccc(-n2c3ccccc3c3ccccc32)cc1` shows solubility (mole fraction) equal to 0.00412

* * *

particulars: in acetonitrile, 298.15 K
endpoint: solubility (mole fraction)

The compound listed as `c1ccc(-n2c3ccccc3c3ccccc32)cc1` shows solubility (mole fraction) equal to 0.00624

* * *

particulars: in dichloromethane, 288.15 K
endpoint: solubility (mole fraction)

The compound listed as `c1ccc(-n2c3ccccc3c3ccccc32)cc1` shows solubility (mole fraction) equal to 0.311

* * *

particulars: in dichloromethane, 293.15 K
endpoint: solubility (mole fraction)
Numbers only.

The compound listed as `c1ccc(-n2c3ccccc3c3ccccc32)cc1` shows solubility (mole fraction) equal to 0.385

* * *

particulars: in n-hexane, 308.15 K
endpoint: solubility (mole fraction)

The molecule listed as `c1ccc(-n2c3ccccc3c3ccccc32)cc1` shows solubility (mole fraction) equal to 0.0703

* * *

particulars: in cyclohexane, 313.15 K
endpoint: solubility (mole fraction)
Numbers only.

The molecule listed as `c1ccc(-n2c3ccccc3c3ccccc32)cc1` shows solubility (mole fraction) equal to 0.132

* * *

particulars: in n-propanol, 298.15 K
endpoint: solubility (mole fraction)
Numbers only.

The compound listed as `c1ccc(-n2c3ccccc3c3ccccc32)cc1` shows solubility (mole fraction) equal to 0.0061

* * *

particulars: in n-hexane, 303.15 K
endpoint: solubility (mole fraction)
Give bare numbers.

The compound listed as `c1ccc(-n2c3ccccc3c3ccccc32)cc1` shows solubility (mole fraction) equal to 0.0624

* * *

particulars: in methanol, 313.15 K
endpoint: solubility (mole fraction)
Answers are plain numbers.

The compound listed as `c1ccc(-n2c3ccccc3c3ccccc32)cc1` shows solubility (mole fraction) equal to 0.00055

* * *

particulars: in n-hexane, 288.15 K
endpoint: solubility (mole fraction)

The compound listed as `c1ccc(-n2c3ccccc3c3ccccc32)cc1` shows solubility (mole fraction) equal to 0.0431

* * *

particulars: in methanol, 303.15 K
endpoint: solubility (mole fraction)
Answers are plain numbers.

The compound listed as `c1ccc(-n2c3ccccc3c3ccccc32)cc1` shows solubility (mole fraction) equal to 0.000296

* * *

particulars: in n-butanol, 313.15 K
endpoint: solubility (mole fraction)
Numbers only.

The compound listed as `c1ccc(-n2c3ccccc3c3ccccc32)cc1` shows solubility (mole fraction) equal to 0.00919
